Exercise: for every item that follows, state its recorded pIC50.
# ASSAY_SYSTEM: GR (Homo sapiens)
# ASSAY_NAME: GR luciferase antagonist assay (CHO/GR/MMTV Luciferase cells)
# APPLIED_CONDITIONS: 10 nM Dexamethasone final, 16-18 h
pIC50: −log10 of the molar value.

The recorded pIC50 for entry CC(C)Nc1ccc([C@H]2C[C@@]3(C)[C@@H](CC[C@@]3(O)C#CC3CC3)[C@@H]3CCC4=CC(=O)CC[C@]4(C)[C@H]32)cc1 [Compound 18] equals ≥ 7.00

The recorded pIC50 for entry CCN(CC)c1ccc([C@H]2C[C@@]3(C)[C@@H](CC[C@@]3(O)C#CC(C)(C)C)[C@@H]3CCC4=CC(=O)CC[C@@H]4[C@H]32)cc1 [Compound 9] equals ≥ 7.00

The recorded pIC50 for entry CC(C)(C)C#C[C@]1(O)CC[C@H]2[C@@H]3CCC4=CC(=O)CC[C@@H]4[C@H]3[C@@H](c3ccc(N)cc3)C[C@@]21C [Compound 13] equals ≥ 7.00

The recorded pIC50 for entry C[C@]12CCC(=O)C=C1CC[C@@H]1[C@@H]2[C@@H](c2ccc(N3CCCC3)cc2)C[C@@]2(C)[C@H]1CC[C@@]2(O)C#CC1CC1 [Compound 28] equals < 7.00

The recorded pIC50 for entry CC(C)N(C)c1ccc([C@H]2C[C@@]3(C)[C@@H](CC[C@@]3(O)C#CC3CC3)[C@@H]3CCC4=CC(=O)CC[C@]4(C)[C@H]32)cc1 [Compound 21] equals ≥ 7.00

* * *

# ASSAY_SYSTEM: GR (Homo sapiens)
# ASSAY_NAME: GR luciferase antagonist assay (CHO/GR/MMTV Luciferase cells)
# APPLIED_CONDITIONS: 10 nM Dexamethasone final, 16-18 h
# Description: Example A: […] GR Luciferase Assay Cell Line: CHO/GR/MMTV Luciferase Culture Media: DMEM (with phenol red)+10% FBS Assay Media: DMEM (without phenol red)+10% CSS A 1×10 cm plate of cells was split into 2×15 cm plates in Assay Media (CSS). After 4 days, the cells in the Assay Media were collected and counted. […] The plates were read using a Tecan or Promega luminometer. The ability of the compounds disclosed herein to inhibit GR activity was quantified and the respective IC50 value was determined. […]
pIC50: −log10 of the molar value.
METRIC: pIC50

The recorded pIC50 for entry CC#C[C@]1(O)CC[C@H]2[C@@H]3CCC4=CC(=O)CC[C@]4(C)[C@H]3[C@@H](c3ccc(N)cc3)C[C@@]21C equals < 7.00

The recorded pIC50 for entry CCC(C)(C)C#C[C@]1(O)CC[C@H]2[C@@H]3CCC4=CC(=O)CC[C@@H]4[C@H]3[C@@H](c3ccc(N(C)C)cc3)C[C@@]21C equals ≥ 7.00

The recorded pIC50 for entry CC(C)(C)C#C[C@]1(O)CC[C@H]2[C@@H]3CCC4=CC(=O)CC[C@@H]4[C@H]3[C@@H](c3ccc(N4CCS(=O)(=O)CC4)cc3)C[C@@]21C equals ≥ 7.00

* * *

Exercise: for every item that follows, state its recorded IC50.
# ASSAY_SYSTEM: GR (Homo sapiens)
# ASSAY_NAME: GR luciferase antagonist assay (CHO/GR/MMTV Luciferase cells)
# APPLIED_CONDITIONS: 10 nM Dexamethasone final, 16-18 h

The recorded IC50 for entry CC(=O)N1CCN(c2ccc([C@H]3C[C@@]4(C)[C@@H](CC[C@@]4(O)C#CC(C)(C)C)[C@@H]4CCC5=CC(=O)CC[C@@H]5[C@H]43)cc2)CC1 equals ≤ 0.1 µM

The recorded IC50 for entry CC#C[C@]1(O)CC[C@H]2[C@@H]3CCC4=CC(=O)CC[C@]4(C)[C@H]3[C@@H](c3ccc(N(C)C(C)C)cc3)C[C@@]21C equals > 0.1 µM

The recorded IC50 for entry CC(C)N(C)c1ccc([C@H]2C[C@@]3(C)[C@@H](CC[C@@]3(O)C#CC(C)(C)C)[C@@H]3CCC4=CC(=O)CC[C@]4(C)[C@H]32)cc1 equals > 0.1 µM

The recorded IC50 for entry CC(C)Nc1ccc([C@H]2C[C@@]3(C)[C@@H](CC[C@@]3(O)C#CC(C)(C)C)[C@@H]3CCC4=CC(=O)CC[C@@H]4[C@H]32)cc1 equals ≤ 0.1 µM

The recorded IC50 for entry C[C@]12CCC(=O)C=C1CC[C@@H]1[C@@H]2[C@@H](c2ccc(N3CCCC3)cc2)C[C@@]2(C)[C@H]1CC[C@@]2(O)C#CC(F)(F)F equals ≤ 0.1 µM

* * *

# ASSAY_SYSTEM: GR (Homo sapiens)
# Sequence (P04150 1-777): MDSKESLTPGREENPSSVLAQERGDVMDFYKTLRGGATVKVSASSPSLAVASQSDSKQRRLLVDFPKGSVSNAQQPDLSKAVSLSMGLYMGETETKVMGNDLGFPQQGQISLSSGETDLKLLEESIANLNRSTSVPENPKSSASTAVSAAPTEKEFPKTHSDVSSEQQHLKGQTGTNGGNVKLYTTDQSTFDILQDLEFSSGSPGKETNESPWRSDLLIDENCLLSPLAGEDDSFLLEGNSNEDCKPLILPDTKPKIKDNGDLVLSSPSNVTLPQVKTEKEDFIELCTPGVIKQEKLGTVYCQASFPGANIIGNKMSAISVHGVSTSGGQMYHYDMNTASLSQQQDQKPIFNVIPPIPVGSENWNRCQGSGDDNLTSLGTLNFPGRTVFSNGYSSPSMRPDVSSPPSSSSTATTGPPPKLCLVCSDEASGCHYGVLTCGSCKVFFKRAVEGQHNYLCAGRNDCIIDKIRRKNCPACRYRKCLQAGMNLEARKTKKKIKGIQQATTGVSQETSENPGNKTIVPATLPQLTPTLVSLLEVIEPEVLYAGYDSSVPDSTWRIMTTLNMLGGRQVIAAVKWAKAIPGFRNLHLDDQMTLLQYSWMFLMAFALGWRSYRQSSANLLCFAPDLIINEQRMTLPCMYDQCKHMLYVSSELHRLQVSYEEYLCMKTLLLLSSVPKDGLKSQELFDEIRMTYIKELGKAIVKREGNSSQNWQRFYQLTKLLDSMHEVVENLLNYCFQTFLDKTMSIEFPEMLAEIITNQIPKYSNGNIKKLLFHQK
# ASSAY_NAME: GR luciferase antagonist assay (CHO/GR/MMTV Luciferase cells)
# APPLIED_CONDITIONS: 10 nM Dexamethasone final, 16-18 h
pIC50: −log10 of the molar value.
METRIC: pIC50

The recorded pIC50 for entry CC(C)(C)C#C[C@]1(O)CC[C@H]2[C@@H]3CCC4=CC(=O)CC[C@@H]4[C@H]3[C@@H](c3ccc4c(c3)OCO4)C[C@@]21C equals ≥ 7.00

The recorded pIC50 for entry CC(C)(C)C#C[C@]1(O)CC[C@H]2[C@@H]3CCC4=CC(=O)CC[C@@H]4[C@H]3[C@@H](c3ccc4c(c3)OCCO4)C[C@@]21C equals ≥ 7.00

The recorded pIC50 for entry CC(C)(C)C#C[C@]1(O)CC[C@H]2[C@@H]3CCC4=CC(=O)CC[C@@H]4[C@H]3[C@@H](c3ccc(N4CCN(S(C)(=O)=O)CC4)cc3)C[C@@]21C equals ≥ 7.00

* * *

Exercise: for every item that follows, state its recorded IC50.
# ASSAY_SYSTEM: GR (Homo sapiens, UniProt P04150)
# Sequence (P04150 1-777): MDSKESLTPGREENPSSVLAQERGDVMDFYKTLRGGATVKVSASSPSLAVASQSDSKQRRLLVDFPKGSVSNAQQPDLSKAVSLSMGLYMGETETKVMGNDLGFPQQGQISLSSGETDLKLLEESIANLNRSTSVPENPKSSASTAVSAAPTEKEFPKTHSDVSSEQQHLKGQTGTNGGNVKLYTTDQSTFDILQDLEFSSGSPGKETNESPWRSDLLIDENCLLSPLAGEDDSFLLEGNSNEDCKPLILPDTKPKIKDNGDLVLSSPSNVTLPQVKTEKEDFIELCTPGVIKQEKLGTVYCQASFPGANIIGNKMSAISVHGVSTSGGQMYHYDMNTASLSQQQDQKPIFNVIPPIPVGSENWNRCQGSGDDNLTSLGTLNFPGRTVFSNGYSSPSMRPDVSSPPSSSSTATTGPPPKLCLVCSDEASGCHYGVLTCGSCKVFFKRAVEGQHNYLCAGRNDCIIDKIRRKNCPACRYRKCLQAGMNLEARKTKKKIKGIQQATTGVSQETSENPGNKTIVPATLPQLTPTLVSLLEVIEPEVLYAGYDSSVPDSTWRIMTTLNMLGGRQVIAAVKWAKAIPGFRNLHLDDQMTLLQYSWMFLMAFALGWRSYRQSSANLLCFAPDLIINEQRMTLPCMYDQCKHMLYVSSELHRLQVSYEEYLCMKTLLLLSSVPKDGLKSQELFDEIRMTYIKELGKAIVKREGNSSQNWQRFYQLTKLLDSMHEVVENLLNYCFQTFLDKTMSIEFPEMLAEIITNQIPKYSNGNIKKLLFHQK
# ASSAY_NAME: GR luciferase antagonist assay (CHO/GR/MMTV Luciferase cells)
# APPLIED_CONDITIONS: 10 nM Dexamethasone final, 16-18 h

The recorded IC50 for entry CC#C[C@]1(O)CC[C@H]2[C@@H]3CCC4=CC(=O)CC[C@]4(C)[C@H]3[C@@H](c3ccc(NC)cc3)C[C@@]21C equals > 100 nM

The recorded IC50 for entry CCC#C[C@]1(O)CC[C@H]2[C@@H]3CCC4=CC(=O)CC[C@]4(C)[C@H]3[C@@H](c3ccc(NC)cc3)C[C@@]21C equals > 100 nM

The recorded IC50 for entry CC(C)N(C)c1ccc([C@H]2C[C@@]3(C)[C@@H](CC(C)[C@@]3(O)C#CC(C)(C)C)[C@@H]3CCC4=CC(=O)CC[C@@H]4[C@H]32)cc1 (single isomer, unassigned) equals ≤ 100 nM

The recorded IC50 for entry CC(C)(C)C#C[C@]1(O)CC[C@H]2[C@@H]3CCC4=CC(=O)CC[C@@H]4[C@H]3[C@@H](c3ccc(N4CCCC4)cc3)C[C@@]21C equals ≤ 100 nM

The recorded IC50 for entry CC(C)N(C)c1ccc([C@H]2C[C@@]3(C)[C@@H](CC[C@@]3(O)C#CC(C)(C)C)[C@@H]3CCC4=CC(=O)CC[C@@H]4[C@H]32)cc1F equals ≤ 100 nM

The recorded IC50 for entry CC#C[C@]1(O)CC[C@H]2[C@@H]3CCC4=CC(=O)CC[C@]4(C)[C@H]3[C@@H](c3ccc(N(C)C)c(F)c3)C[C@@]21C equals > 100 nM

The recorded IC50 for entry COC(C)(C)C#C[C@]1(O)CC[C@H]2[C@@H]3CCC4=CC(=O)CC[C@@H]4[C@H]3[C@@H](c3ccc(N(C)C(C)C)cc3)C[C@@]21C equals ≤ 100 nM

The recorded IC50 for entry CC(C)Nc1ccc([C@H]2C[C@@]3(C)[C@@H](CC[C@@]3(O)C#CC(C)(C)C)[C@@H]3CCC4=CC(=O)CC[C@@H]4[C@H]32)cc1F equals > 100 nM

The recorded IC50 for entry CC#C[C@]1(O)CC[C@H]2[C@@H]3CCC4=CC(=O)CC[C@]4(C)[C@H]3[C@@H](c3ccc(-n4cccc4)cc3)C[C@@]21C equals ≤ 100 nM

The recorded IC50 for entry CN1CCN(c2ccc([C@H]3C[C@@]4(C)[C@@H](CC[C@@]4(O)C#CC(C)(C)C)[C@@H]4CCC5=CC(=O)CC[C@@H]5[C@H]43)cc2)CC1 equals ≤ 100 nM

The recorded IC50 for entry COCC#C[C@]1(O)CC[C@H]2[C@@H]3CCC4=CC(=O)CC[C@]4(C)[C@H]3[C@@H](c3ccc(N(C)C)cc3)C[C@@]21C equals > 100 nM
